- System: Bacillus subtilis
- METHOD_NOTES: Antibacterial activity against penicillin-susceptible Bacillus subtilis ATCC 9372 after 24 hrs by broth dilution assay
- Assay type: functional
- RECORDED_CONDITIONS: ATCC 9372, 24 h
OBSERVED_PROPERTY: MIC (µg/mL)

| CHEMICAL_STRING | TESTED_SYSTEM | OBSERVED_PROPERTY | RECORDED_MEASUREMENT |
| --- | --- | --- | --- |
| CC[C@H]1OC(=O)[C@H](C)[C@@H](O[C@H]2C[C@@](C)(OC)[C@@H](O)[C@H](C)O2)[C@H](C)[C@@H](O[C@@H]2O[C@H](C)C[C@H](N(C)C)[C@H]2O)[C@](C)(O)C[C@@H](C)CN(C)[C@H](C)[C@@H](O)[C@]1(C)O | Bacillus subtilis | MIC | 0.5 |
| CC[C@H]1OC(=O)[C@H](C)[C@@H](OC(=O)NCCc2ccc(O)cc2)[C@H](C)[C@@H](O[C@@H]2O[C@H](C)C[C@H](N(C)C)[C@H]2O)[C@](C)(OC)C[C@@H](C)/C(=N/OCc2ccccc2Cl)[C@H](C)[C@@H](O)[C@]1(C)O | Bacillus subtilis | MIC | 1 |
| CC[C@H]1OC(=O)[C@H](C)[C@@H](OC(=O)NC2CC2)[C@H](C)[C@@H](O[C@@H]2O[C@H](C)C[C@H](N(C)C)[C@H]2O)[C@](C)(OC)C[C@@H](C)/C(=N/OCc2ccccc2Cl)[C@H](C)[C@@H](O)[C@]1(C)O | Bacillus subtilis | MIC | 4 |
| CC[C@H]1OC(=O)[C@H](C)[C@@H](OC(=O)NCCc2ccc(F)cc2)[C@H](C)[C@@H](O[C@@H]2O[C@H](C)C[C@H](N(C)C)[C@H]2O)[C@](C)(OC)C[C@@H](C)/C(=N/OCc2ccccc2Cl)[C@H](C)[C@@H](O)[C@]1(C)O | Bacillus subtilis | MIC | 2 |

====

- Test system: Streptococcus pneumoniae
- METHOD_NOTES: Antibacterial activity against erythromycin-resistant Streptococcus pneumoniae A22072 expressing mefA gene after 24 hrs by broth dilution assay
- Format: functional
- RECORDED_CONDITIONS: A22072, 24 h
Readings of MIC for the listed compounds

| CHEMICAL_STRING | UNIT_SYMBOL | MIC |
| --- | --- | --- |
| CC[C@H]1OC(=O)[C@H](C)[C@@H](OC(=O)NC2CCCC2)[C@H](C)[C@@H](O[C@@H]2O[C@H](C)C[C@H](N(C)C)[C@H]2O)[C@](C)(OC)C[C@@H](C)/C(=N/OCc2ccccc2Cl)[C@H](C)[C@@H](O)[C@]1(C)O | µg/mL | 0.5 |
| CC[C@H]1OC(=O)[C@H](C)[C@@H](OC(=O)NCc2ccccc2Cl)[C@H](C)[C@@H](O[C@@H]2O[C@H](C)C[C@H](N(C)C)[C@H]2O)[C@](C)(OC)C[C@@H](C)/C(=N/OCc2ccccc2Cl)[C@H](C)[C@@H](O)[C@]1(C)O | µg/mL | 1 |
| CC[C@H]1OC(=O)[C@H](C)[C@@H](OC(=O)NC2CCCCC2)[C@H](C)[C@@H](O[C@@H]2O[C@H](C)C[C@H](N(C)C)[C@H]2O)[C@](C)(OC)C[C@@H](C)/C(=N/OCc2ccccc2Cl)[C@H](C)[C@@H](O)[C@]1(C)O | µg/mL | 1 |
| CC[C@H]1OC(=O)[C@H](C)[C@@H](OC(=O)NCc2ccc(F)cc2)[C@H](C)[C@@H](O[C@@H]2O[C@H](C)C[C@H](N(C)C)[C@H]2O)[C@](C)(OC)C[C@@H](C)/C(=N/OCc2ccccc2Cl)[C@H](C)[C@@H](O)[C@]1(C)O | µg/mL | 1 |

The measurements presented in this section are drawn from ChEMBL document CHEMBL4261593.
